- TESTED TARGET: RARβ (Homo sapiens, UniProt P10826)
- Sequence (P10826 1-455): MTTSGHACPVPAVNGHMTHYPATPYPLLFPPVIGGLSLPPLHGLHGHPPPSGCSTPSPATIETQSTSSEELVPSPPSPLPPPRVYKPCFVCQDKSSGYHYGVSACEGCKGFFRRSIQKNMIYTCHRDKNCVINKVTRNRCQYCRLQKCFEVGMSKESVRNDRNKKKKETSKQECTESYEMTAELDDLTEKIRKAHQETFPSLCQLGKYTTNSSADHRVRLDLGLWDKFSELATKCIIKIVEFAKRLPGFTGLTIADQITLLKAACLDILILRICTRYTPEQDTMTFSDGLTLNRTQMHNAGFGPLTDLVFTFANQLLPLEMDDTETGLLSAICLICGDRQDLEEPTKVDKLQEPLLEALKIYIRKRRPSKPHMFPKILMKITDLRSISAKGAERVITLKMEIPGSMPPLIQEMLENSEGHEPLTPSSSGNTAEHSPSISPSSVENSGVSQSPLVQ
- PROTOCOL NOTES: ligand binding assay, RARβ
- EXPERIMENTAL CONTEXT: RARβ receptor subtype; read-out: RAR Kd (nM) β
MEASURE: Kd

CC12CCC(C)(CC1)c1c2cc(C(=O)Nc2cc(F)c(C(=O)O)c(F)c2)c(O)c1Br = > 10000 nM
CC12CCC(C)(CC1)c1cc(C(=O)Nc3ccc(C(=O)O)c(F)c3)c(O)cc12 = 7200 nM

Let us examine a further case.
Quick one: Kd for CC12CCC(C)(CC1)c1c2cc(C(=O)Nc2ccc(C(=O)O)c(F)c2)c(O)c1Br ?
> 10000 nM
